# target_desc: KRAS G12S (Homo sapiens, UniProt P01116+P62937, G12S)
# Sequence (P01116 1-169 isoform P01116-2 G12S limits assumed): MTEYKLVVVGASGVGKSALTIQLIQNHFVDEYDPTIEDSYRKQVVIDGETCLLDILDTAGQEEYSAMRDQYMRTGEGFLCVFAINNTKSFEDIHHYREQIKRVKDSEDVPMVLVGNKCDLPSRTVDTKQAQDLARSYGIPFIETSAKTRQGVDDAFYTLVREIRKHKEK
# Sequence (P62937 whole entry): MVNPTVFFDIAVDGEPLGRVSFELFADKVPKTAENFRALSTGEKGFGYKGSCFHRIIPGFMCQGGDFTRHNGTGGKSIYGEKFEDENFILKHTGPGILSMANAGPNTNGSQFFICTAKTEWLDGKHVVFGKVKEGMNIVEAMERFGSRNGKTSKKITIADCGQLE
# experiment: Ras-Raf disruption / FRET / MOA assay (BRAF RBD)
# Format: biochemical
# conditions_used: Ras-Raf disruption, with Cyclophilin A; read-out: KRAS G12S FRET data IC50
attribute_measured: IC50

Record excerpt, results attached:
[[record]]
molecule = "CCn1c(-c2cccnc2[C@H](C)OC)c2c3cc(ccc31)-c1cc(O)cc(c1)C[C@H](NC(=O)[C@H](C(C)C)N(C)C(=O)N1CC[C@H](N(C)C(=O)[C@@H]3CN3)C1)C(=O)N1CCC[C@H](N1)C(=O)OCC(C)(C)C2 (atropisomer, axis not shown)"
value = "10 to 100 nM"

[[record]]
molecule = "CCn1c(-c2cccnc2[C@H](C)OC)c2c3cc(ccc31)-c1cc(O)cc(c1)C[C@H](NC(=O)[C@H](C(C)C)N(C)C(=O)[C@H]1CCN(C(=O)[C@H]3CN3)[C@H]1C)C(=O)N1CCC[C@H](N1)C(=O)OCC(C)(C)C2 (atropisomer, axis not shown)"
value = "100 to 1000 nM"

[[record]]
molecule = "CCn1c(-c2cccnc2[C@H](C)OC)c2c3cc(ccc31)-c1csc(n1)C[C@H](NC(=O)[C@H](C(C)C)N(C)C(=O)N1CC(CN(C)C(=O)[C@@H]3CN3)C1)C(=O)N1CCC[C@H](N1)C(=O)OCC(C)(C)C2 (atropisomer, axis not shown)"
value = "100 to 1000 nM"


Turning now to a further molecule:
Give the reported value of IC50 for this record: CCn1c(-c2cccnc2[C@H](C)OC)c2c3cc(ccc31)-c1cc(O)cc(c1)C[C@H](NC(=O)[C@H](C(C)C)N(C)C(=O)N1CCN(C(=O)[C@@H]3CN3)C(=O)C1)C(=O)N1CCC[C@H](N1)C(=O)OCC(C)(C)C2 [Example 194]
100 to 1000 nM
